Reference for the values: patent US20130225548A1

Record type: IC50 measurement. Applies to: Syk tyrosine kinase (Homo sapiens)
Counter-ions that a name gives are not always drawn.

Query: Please look up its IC50: N#Cc1ccnc(Nc2cc(C3CC3)cc(-c3cccc(CN4CCNC(=O)C4)c3)n2)c1 [Example 79, hydrochloride]
Response: 5 to 50 nM

Query: Then N#Cc1ccnc(Nc2cc(C3CC3)cc(-c3ccc(N4CCCC4=O)nc3)n2)c1 [Example 53, hydrochloride] ?
Response: 50 to 500 nM

Query: Then CCNC(=O)N1CCN(c2ccc(-c3cc(C4CC4)cc(Nc4cc(C#N)ccn4)n3)cn2)CC1 [Example 43, hydrochloride] ?
Response: 50 to 500 nM

Query: Then N#Cc1ccnc(Nc2cc(C3CC3)cc(-c3cncc(COC4CCNCC4)c3)n2)c1 [Example 91, hydrochloride] ?
Response: < 5 nM

Query: Then N#Cc1ccnc(Nc2cc(C3CC3)cc(-c3cncc(CN4CCN(C(N)=O)CC4)c3)n2)c1 [Example 83, hydrochloride] ?
Response: 5 to 50 nM

Query: Then N#Cc1ccnc(Nc2cc(C3CC3)cc(-c3ccc4nc(CO)n([C@H]5CC[C@H](O)CC5)c4c3)n2)c1 [Example 162, hydrochloride] ?
Response: < 5 nM

Query: Then N#Cc1ccnc(Nc2cc(C3CC3)cc(-c3ccc4nc([C@H]5CC[C@H](O)CC5)[nH]c4c3)n2)c1 [Example 175, hydrochloride] ?
Response: 50 to 500 nM

###

# pIC50 listing for each entry below
target: Syk tyrosine kinase (Homo sapiens, UniProt P43405); construct: purchased Carna Biosciences, Inc; assay: Test for Syk tyrosine kinase inhibitory activity (ELISA); format: biochemical; details: Syk tyrosine kinase (Carna Biosciences), 25 μM ATP in substrate solution, 30° C. 1 hour, n=2; read-out: Evaluation (IC50, concentration inhibiting the tyrosine kinase activity at 50%)
pIC50: −log10 of the molar value. Where a name gives a salt, the structure may show the parent alone.

INSERT INTO assay_data (compound, value) VALUES
  ('N#Cc1ccnc(Nc2cc(C3CC3)cc(-c3ccc4[nH]ncc4c3)n2)c1 [Example 56, hydrochloride]', '7.30 to 8.30'),
  ('N#Cc1ccnc(Nc2cc(C3CC3)cc(-c3ccc(N4CCN(C(N)=O)CC4)nc3)n2)c1 [Example 57, hydrochloride]', '7.30 to 8.30'),
  ('CN(C)[C@@H]1CCN(c2ccc(-c3cc(C4CC4)cc(Nc4cc(C#N)ccn4)n3)cn2)C1 [Example 52, hydrochloride]', '6.30 to 7.30'),
  ('CNC(=O)CCn1cnc2cc(-c3cc(C4CC4)cc(Nc4cc(C#N)ccn4)n3)ccc21 [Example 132, hydrochloride]', '6.30 to 7.30'),
  ('N#Cc1ccnc(Nc2cc(C3CC3)cc(-c3cncc(N4CCS(=O)(=O)CC4)c3)n2)c1 [Example 68, hydrochloride]', '6.30 to 7.30');

Query: Please look up its pIC50: N#Cc1ccnc(Nc2cc(C3CC3)cc(-c3ccc(N(CCO)CCO)nc3)n2)c1 [Example 31, hydrochloride]
Response: 7.30 to 8.30

Query: Then COCCn1cnc2cc(-c3cc(C4CC4)cc(Nc4cc(C#N)ccn4)n3)ccc21 [Example 148, hydrochloride] ?
Response: 6.30 to 7.30

###

Where a name gives a salt, the structure may show the parent alone.
Record type: IC50 measurement. Applies to: Syk tyrosine kinase (Homo sapiens)

In the examples that follow, each entry is paired with its recorded IC50.
INSERT INTO assay_data (molecule, value) VALUES
  ('Cn1cnc2cc(-c3cc(C4CC4)cc(Nc4cc(C#N)ccn4)n3)ccc21', '0.005 to 0.05 µM'),
  ('N#Cc1ccnc(Nc2cc(C3CC3)cc(-c3ccc(N4CC(O)C4)nc3)n2)c1 [Example 6, hydrochloride]', '0.005 to 0.05 µM'),
  ('N#Cc1ccnc(Nc2cc(C3CC3)cc(-c3ccc4ncn(CCCCO)c4c3)n2)c1 [Example 127, hydrochloride]', '0.005 to 0.05 µM'),
  ('CC(=O)O[C@@H]1CCC[C@H]1n1cnc2ccc(-c3cc(C4CC4)cc(Nc4cc(C#N)ccn4)n3)cc21 (relative stereo) [Example 141, acetate hydrochloride]', '0.05 to 0.5 µM'),
  ('CC(C)(O)Cn1cnc2ccc(-c3cc(C4CC4)cc(Nc4cc(C#N)ccn4)n3)cc21 [Example 144, hydrochloride]', '0.05 to 0.5 µM');

Query: Please look up its IC50: CNC(=O)C1CCCN1c1ccc(-c2cc(C3CC3)cc(Nc3cc(C#N)ccn3)n2)cn1 (stereo not shown) [Example 39, hydrochloride]
Response: 0.05 to 0.5 µM

###

Record type: IC50 measurement. Applies to: UniProt:P43405
Counter-ions that a name gives are not always drawn.

INSERT INTO measurements (compound, value) VALUES
  ('Cn1ncc2ccc(-c3cc(C4CC4)cc(Nc4cc(C#N)ccn4)n3)cc21 [Example 37, hydrochloride]', '5 to 50 nM'),
  ('N#Cc1ccnc(Nc2cc(C3CC3)cc(-c3ccc(N4CCC(N)CC4)nc3)n2)c1 [Example 28, dihydrochloride]', '5 to 50 nM'),
  ('Cn1ncc2cc(-c3cc(C4CC4)cc(Nc4cc(C#N)ccn4)n3)ccc21 [Example 36, hydrochloride]', '5 to 50 nM'),
  ('N#Cc1ccnc(Nc2cc(C3CC3)cc(-c3cccc(CN4CCNCC4)c3)n2)c1 [Example 84, hydrochloride]', '< 5 nM'),
  ('N#Cc1ccnc(Nc2cc(C3CC3)cc(-c3ccc4ncn([C@H]5CC[C@H](N)CC5)c4c3)n2)c1 [Example 172, hydrochloride]', '5 to 50 nM');

Query: Please look up its IC50: N#Cc1ccnc(Nc2cc(C3CC3)cc(-c3ccc4ccnc(N5CC[C@@H](F)C5)c4c3)n2)c1 [Example 168, hydrochloride]
Response: 50 to 500 nM

Query: Then N#Cc1ccnc(Nc2cc(C3CC3)cc(-c3ccc(N4CCC[C@@H]4C(N)=O)nc3)n2)c1 [Example 47, hydrochloride] ?
Response: 50 to 500 nM

Query: Then N#Cc1ccnc(Nc2cc(C3CC3)cc(-c3ccc(N4CCC[C@H](O)C4)nc3)n2)c1 [Example 33, hydrochloride] ?
Response: 5 to 50 nM

Query: Then N#Cc1ccnc(Nc2cc(C3CC3)cc(-c3cncc(N4CCCNCC4)c3)n2)c1 [Example 98, hydrochloride] ?
Response: < 5 nM

Query: Then N#Cc1ccnc(Nc2cc(C3CC3)cc(-c3ccc4ncn(C5CCOCC5)c4c3)n2)c1 [Example 139, hydrochloride] ?
Response: 5 to 50 nM

Query: Then N#Cc1ccnc(Nc2cc(C3CC3)cc(-c3ccc4ccnc(N5CCNC5=O)c4c3)n2)c1 [Example 171, hydrochloride] ?
Response: 5 to 50 nM

Query: Then N#Cc1ccnc(Nc2cc(C3CC3)cc(-c3ccc(N4CCCNCC4)nc3)n2)c1 [Example 32, dihydrochloride] ?
Response: 5 to 50 nM

Query: Then CN(C)C(=O)CCn1cnc2cc(-c3cc(C4CC4)cc(Nc4cc(C#N)ccn4)n3)ccc21 [Example 131, hydrochloride] ?
Response: 50 to 500 nM

Query: Then N#Cc1ccnc(Nc2cc(C3CC3)cc(-c3cnc(N4CCS(=O)(=O)CC4)nc3)n2)c1 [Example 105, hydrochloride] ?
Response: 50 to 500 nM

###

Counter-ions that a name gives are not always drawn.
Record type: IC50 measurement. Applies to: Syk tyrosine kinase (Homo sapiens)

In the examples that follow, each entry is paired with its recorded IC50.
INSERT INTO results (compound, value_type, value) VALUES
  ('N#Cc1ccnc(Nc2cc(C3CC3)cc(-c3ccc(N4CCNC(=O)C4)nc3)n2)c1 [Example 5, hydrochloride]', 'IC50', '0.005 to 0.05 µM'),
  ('N#Cc1ccnc(Nc2cc(C3CC3)cc(-c3cncc(OCC(N)=O)c3)n2)c1 [Example 109, hydrochloride]', 'IC50', '0.005 to 0.05 µM'),
  ('N#Cc1ccnc(Nc2cc(C3CC3)cc(-c3ccc(CO)nc3)n2)c1 [Example 71, hydrochloride]', 'IC50', '0.05 to 0.5 µM'),
  ('CC(=O)N1CCCN(c2ccc(-c3cc(C4CC4)cc(Nc4cc(C#N)ccn4)n3)cn2)CC1 [Example 9, hydrochloride]', 'IC50', '0.05 to 0.5 µM'),
  ('N#Cc1ccnc(Nc2cc(C3CC3)cc(-c3ccc4ncn([C@@H]5CCCC[C@H]5O)c4c3)n2)c1 (relative stereo) [Example 146, hydrochloride]', 'IC50', '0.005 to 0.05 µM'),
  ('N#Cc1ccnc(Nc2cc(C3CC3)cc(-c3ccc(N4CCCN(C(N)=O)CC4)nc3)n2)c1 [Example 10, hydrochloride]', 'IC50', '0.005 to 0.05 µM');

Query: Please look up its IC50: N#Cc1ccnc(Nc2cc(C3CC3)cc(-c3cncc(OC4CCNCC4)c3)n2)c1 [Example 96, hydrochloride]
Response: < 0.005 µM

Query: Then N#Cc1ccnc(Nc2cc(C3CC3)cc(-c3ccc4c(c3)ncn4C3CCOCC3)n2)c1 [Example 16, hydrochloride] ?
Response: 0.005 to 0.05 µM

Query: Then N#Cc1ccnc(Nc2cc(C3CC3)cc(-c3ccc(N4CCN(CC(N)=O)CC4)nc3)n2)c1 [Example 7, hydrochloride] ?
Response: 0.05 to 0.5 µM

Query: Then N#Cc1ccnc(Nc2cc(C3CC3)cc(-c3ccc(N4CCC(C(=O)O)CC4)nc3)n2)c1 [Example 60, hydrochloride] ?
Response: 0.005 to 0.05 µM

Query: Then N#Cc1ccnc(Nc2cc(C3CC3)cc(-c3cnc(N4CCCN(C(N)=O)CC4)nc3)n2)c1 [Example 106, hydrochloride] ?
Response: 0.005 to 0.05 µM

Query: Then N#Cc1ccnc(Nc2cc(C3CC3)cc(-c3ccc4c(c3)ncn4[C@@H]3CCCC[C@H]3O)n2)c1 (relative stereo) [Example 152, hydrochloride] ?
Response: 0.05 to 0.5 µM

Query: Then CC(=O)N1CCCN(c2cncc(-c3cc(C4CC4)cc(Nc4cc(C#N)ccn4)n3)c2)CC1 [Example 110, hydrochloride] ?
Response: 0.05 to 0.5 µM

Query: Then N#Cc1ccnc(Nc2cc(C3CC3)cc(-c3cncc(N4CCC[C@H](O)C4)c3)n2)c1 [Example 112, hydrochloride] ?
Response: < 0.005 µM
